# Test method notes: Therapeutic index, ratio of IC50 for African green monkey Vero cells to IC50 for Plasmodium falciparum K1CB1 harboring DHFR […] mutant
# Format: toxicity
# Measurement conditions: read-out: Ratio IC50
Reported endpoint: selectivity ratio

Sample answers from the record:
Compound	selectivity ratio
CC1(C)N=C(N)N=C(N)N1OCCCOc1cc(Cl)c(Cl)cc1Cl	> 435
Cc1ccc(C)c(NCCCON2C(N)=NC(N)=NC2(C)C)c1	> 500
CC1N=C(N)N=C(N)N1OCCCOc1ccc(Cl)cc1 (centres undefined)	> 1720

Attention now turns to another entry.
Qu. Param item = `CCN(CC)CCCON1C(N)=NC(N)=NC1(C)C` ; retrieve measured selectivity ratio.
Ans. > 1560

Reference for the values: ChEMBL document CHEMBL4765292
